# tgt: Isocitrate dehydrogenase [NADP], mitochondrial (Homo sapiens, UniProt P48735, R172K)
# Sequence (P48735 40-452 R172K limits assumed): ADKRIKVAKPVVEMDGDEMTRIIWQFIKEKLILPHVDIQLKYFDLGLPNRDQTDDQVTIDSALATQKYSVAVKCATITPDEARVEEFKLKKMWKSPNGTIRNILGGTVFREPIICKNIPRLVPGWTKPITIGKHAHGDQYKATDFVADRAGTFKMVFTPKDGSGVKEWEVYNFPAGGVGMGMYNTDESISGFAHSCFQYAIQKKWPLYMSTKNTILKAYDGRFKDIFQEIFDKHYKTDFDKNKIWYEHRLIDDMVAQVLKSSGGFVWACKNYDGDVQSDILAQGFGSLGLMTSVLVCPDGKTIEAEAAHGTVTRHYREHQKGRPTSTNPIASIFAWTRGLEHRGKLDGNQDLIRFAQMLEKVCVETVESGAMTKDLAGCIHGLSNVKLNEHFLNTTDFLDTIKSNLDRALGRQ
# test_method_notes: Inhibition of IDH2 R172K mutant (unknown origin) assessed as reduction in NADPH consumption using alpha-ketoglutarate and NADPH as substrate preincubated with enzyme for 15 mins followed by substrate addition by fluorescence based assay
pIC50: −log10 of the molar value.
Note to self: values exactly at 7 are yes. So pIC50 at or above 7 is yes, below is no.

{"compound": "O=C1NCCCCNc2nc(nc(-c3cccc(C(F)(F)F)n3)n2)Nc2cc1cc(C(F)(F)F)c2", "assigned_label": "no"}
{"compound": "CC1(C)CNc2nc(nc(-c3cccc(C(F)(F)F)n3)n2)Nc2cc(cc(C(F)(F)F)c2)OCCCO1", "assigned_label": "yes"}
{"compound": "FC(F)(F)c1cc2cc(c1)Nc1nc(nc(-c3cccc(C(F)(F)F)n3)n1)NCC/C=C/C2", "assigned_label": "no"}
{"compound": "FC(F)(F)c1cc2cc(c1)Nc1nc(nc(-c3cccc(C(F)(F)F)n3)n1)NCCC/C=C/C2", "assigned_label": "yes"}
{"compound": "CC1(C)CNc2nc(nc(-c3cccc(C(F)(F)F)n3)n2)Nc2cc(cc(C(F)(F)F)c2)CCCCO1", "assigned_label": "yes"}

Item FC(F)(F)c1cc2cc(c1)OC/C=C\CCCNc1nc(nc(-c3cccc(C(F)(F)F)n3)n1)N2 with pIC50 of 7 or above?
yes

Kindly determine if pIC50 recorded for FC(F)(F)c1cc2cc(c1)OC/C=C\CCNc1nc(nc(-c3cccc(C(F)(F)F)n3)n1)N2 is above or exactly 7.
no

* * *

# tgt: Isocitrate dehydrogenase [NADP], mitochondrial (Homo sapiens, UniProt P48735, R140Q)
# Sequence (P48735 40-452 R140Q limits assumed): as the sequence (P48735 40-452 R172K limits assumed) above, with R101Q, K133R counted along it
# test_method_notes: Inhibition of IDH2 R140Q mutant (unknown origin) assessed as reduction in NADPH consumption using alpha-ketoglutarate and NADPH as substrate preincubated with enzyme for 15 mins followed by substrate addition by fluorescence based assay
measured_parameter: pIC50
Expect pIC50 as a plain number equal to -log10 of the molar concentration.

{"compound": "C=CCOC(C)(C)CNc1nc(Nc2cccc(C(F)(F)F)c2)nc(-c2cccc(C(F)(F)F)n2)n1", "measured_parameter": "pIC50", "result_value": 7.48}
{"compound": "FC(F)(F)c1cc2cc(c1)Nc1nc(nc(-c3cccc(C(F)(F)F)n3)n1)NCCCC/C=C/C2", "measured_parameter": "pIC50", "result_value": 7.42}
{"compound": "CS(=O)(=O)O.FC(F)(F)c1cc2cc(c1)Nc1nc(nc(-c3cccc(C(F)(F)F)n3)n1)NCCCCCC2", "measured_parameter": "pIC50", "result_value": 7.22}

Turning now to a further compound:
Looking for the measured pIC50 of FC(F)(F)c1cc2cc(c1)Nc1nc(nc(-c3cccc(C(F)(F)F)n3)n1)NCCCCC2 , can you help?
5.91

* * *

# tgt: Isocitrate dehydrogenase [NADP], mitochondrial (Homo sapiens, UniProt P48735, R172K)
# test_method_notes: Inhibition of IDH2 R172K mutant (unknown origin) assessed as reduction in NADPH consumption using alpha-ketoglutarate and NADPH as substrate preincubated with enzyme for 15 mins followed by substrate addition by fluorescence based assay
Measured pIC50 accompanies every entry in the list below.
Lab note: report pIC50 as minus log10 of the concentration in molar units, number only.

# annotated cases, reported pIC50 shown
{"compound": "FC(F)(F)c1cccc(-c2nc3nc(n2)Nc2cc(Cl)cc(c2)CCCCOCCN3)n1", "tgt": "Isocitrate dehydrogenase [NADP], mitochondrial (Homo sapiens, UniProt P48735, R172K)", "pIC50": 6.35}
{"compound": "FC(F)(F)c1cc2cc(c1)Nc1nc(nc(-c3cccc(C(F)(F)F)n3)n1)NCCCCCCC2", "tgt": "Isocitrate dehydrogenase [NADP], mitochondrial (Homo sapiens, UniProt P48735, R172K)", "pIC50": 7.52}
{"compound": "FC(F)(F)c1cc2cc(c1)Nc1nc(nc(-c3cccc(C(F)(F)F)n3)n1)NCCCC/C=C/C2", "tgt": "Isocitrate dehydrogenase [NADP], mitochondrial (Homo sapiens, UniProt P48735, R172K)", "pIC50": 7.33}
{"compound": "FC(F)(F)c1cc2cc(c1)Nc1nc(nc(-c3cccc(C(F)(F)F)n3)n1)NCCCCCCCC2", "tgt": "Isocitrate dehydrogenase [NADP], mitochondrial (Homo sapiens, UniProt P48735, R172K)", "pIC50": 6.88}
{"compound": "FC(F)(F)c1cc2cc(c1)Nc1nc(nc(-c3cccc(C(F)(F)F)n3)n1)NCCCCC/C=C/C2", "tgt": "Isocitrate dehydrogenase [NADP], mitochondrial (Homo sapiens, UniProt P48735, R172K)", "pIC50": 7.03}

Would you mind telling me what pIC50 value was observed for CC1(C)CCNc2nc(nc(-c3cccc(C(F)(F)F)n3)n2)Nc2cc(cc(C(F)(F)F)c2)CCCCO1 ?
6.34

* * *

# test_method_notes: Tmax in Sprague-Dawley rat at 10 mg/kg, po measured up to 24 hrs by LC-MS/MS analysis
# Format: ADME, organism-based
# stated_conditions: in vivo
measured_parameter: Tmax (h)
Hi! Could you send only the number? It should be in h, unit omitted.

Given the entry CS(=O)(=O)O.FC(F)(F)c1cc2cc(c1)Nc1nc(nc(-c3cccc(C(F)(F)F)n3)n1)NCCCCCC2 , report its measured Tmax.
1.33

* * *

Let's look at some molecules and their measured remaining at 0.75 h, 100 ug/ml.
# test_method_notes: Metabolic stability in human liver microsomes assessed as parent compound remaining at 100 ug/ml measured after 45 mins in presence of NADPH by LC-MS analysis
# Assay type: ADME, Microsome
# stated_conditions: at 100 µg/mL, read-out: Stabilty
Express the result in % but write the number alone.

Known remaining at 0.75 h, 100 ug/ml results, listed for orientation:
{"compound": "CC(C)(O)CNc1nc(Nc2cccc(C(F)(F)F)c2)nc(-c2cccc(C(F)(F)F)n2)n1", "units_symbol": "%", "remaining at 0.75 h, 100 ug/ml": 81}
{"compound": "FC(F)(F)c1cc2cc(c1)Nc1nc(nc(-c3cccc(C(F)(F)F)n3)n1)NCCCCCCCC2", "units_symbol": "%", "remaining at 0.75 h, 100 ug/ml": 75}
{"compound": "FC(F)(F)c1cc2cc(c1)OC/C=C\\CCNc1nc(nc(-c3cccc(C(F)(F)F)n3)n1)N2", "units_symbol": "%", "remaining at 0.75 h, 100 ug/ml": 66}
{"compound": "FC(F)(F)c1cc2cc(c1)OCCCCCCNc1nc(nc(-c3cccc(C(F)(F)F)n3)n1)N2", "units_symbol": "%", "remaining at 0.75 h, 100 ug/ml": 97}
{"compound": "FC(F)(F)c1cc2cc(c1)Nc1nc(nc(-c3cccc(C(F)(F)F)n3)n1)NCCC/C=C/C2", "units_symbol": "%", "remaining at 0.75 h, 100 ug/ml": 91}

Next, consider the following molecule.
# query: remaining at 0.75 h, 100 ug/ml of entry FC(F)(F)c1cc2cc(c1)Nc1nc(nc(-c3cccc(C(F)(F)F)n3)n1)NCCCCCC2
94

* * *

# test_method_notes: Metabolic stability in human liver microsomes assessed as parent compound remaining at 100 ug/ml measured after 15 mins in presence of NADPH by LC-MS analysis
# Type: ADME, Microsome
# stated_conditions: at 100 µg/mL, read-out: Stabilty
measured_parameter: remaining at 0.25 h, 100 ug/ml (%)
Numbers only here, please. The scale is %.

{"compound": "FC(F)(F)c1cc2cc(c1)OCCCCCCNc1nc(nc(-c3cccc(C(F)(F)F)n3)n1)N2", "units_symbol": "%", "remaining at 0.25 h, 100 ug/ml": 93}
{"compound": "FC(F)(F)c1cc2cc(c1)OC/C=C\\CCNc1nc(nc(-c3cccc(C(F)(F)F)n3)n1)N2", "units_symbol": "%", "remaining at 0.25 h, 100 ug/ml": 89}
{"compound": "FC(F)(F)c1cc2cc(c1)Nc1nc(nc(-c3cccc(C(F)(F)F)n3)n1)NCCCCCC2", "units_symbol": "%", "remaining at 0.25 h, 100 ug/ml": 95}

Consider the record given below.
# input molecule: CC(C)(O)CNc1nc(Nc2cccc(C(F)(F)F)c2)nc(-c2cccc(C(F)(F)F)n2)n1 ; wanted: its remaining at 0.25 h, 100 ug/ml
86

* * *

Each entry below carries its recorded pIC50.
# tgt: Isocitrate dehydrogenase [NADP], mitochondrial (Homo sapiens, UniProt P48735, R140Q)
# test_method_notes: Inhibition of IDH2 R140Q mutant (unknown origin) assessed as reduction in NADPH consumption using alpha-ketoglutarate and NADPH as substrate preincubated with enzyme for 15 mins followed by substrate addition by fluorescence based assay
Please report pIC50 as the negative decimal logarithm of the molar concentration, giving only the number.

Recorded results for 3 compounds are shown here.
{"compound": "CC(C)(O)CNc1nc(Nc2ccncc2)nc(-c2cccc(C(F)(F)F)n2)n1", "pIC50": 6.18}
{"compound": "FC(F)(F)c1cc2cc(c1)OC/C=C\\CCCNc1nc(nc(-c3cccc(C(F)(F)F)n3)n1)N2", "pIC50": 7.76}
{"compound": "FC(F)(F)c1cc2cc(c1)Nc1nc(nc(-c3cccc(C(F)(F)F)n3)n1)NCCOC/C=C\\C2", "pIC50": 7.40}

Attention now turns to another entry.
Dear colleague, I am looking for the recorded pIC50 of the following compound: Fc1cc2cc(c1)Nc1nc(nc(-c3cccc(C(F)(F)F)n3)n1)NCCOCCCC2
7.73
